- measuredOn: Cannabinoid receptor 1 (Homo sapiens)
- assayDetails: Agonist activity at human cloned CB1 receptor expressed in CHO cells assessed as inhibition of forskolin-induced cAMP accumulation
pEC50 by entry:
Quick note: pEC50 values are minus log10 of concentrations in mol/L.

Use these answered entries as a reference point.
# molecule, experimentalResult
records = [
    ("COc1ccc(F)c(-c2c[nH]c(-c3cccc(CN4CCCCC4)c3)n2)c1", 6.49),
    ("FC1CCN(Cc2cccc(-c3nc(-c4cccc(Cl)c4Cl)c[nH]3)c2)CC1", 5.89),
    ("CC1CN(Cc2cccc(-c3nc(-c4cccc(Cl)c4)c[nH]3)c2)CCO1 (stereo not given)", 5.49),
]

Alright, here's another molecule for you.
Problem: Please give the measured pEC50 for this molecule: `Brc1cccc(-c2c[nH]c(-c3cccc(CN4CCOCC4)c3)n2)c1`
Solution: 6.18

###

- measuredOn: Cannabinoid receptor 1 (Homo sapiens, UniProt P21554)
- Sequence (P21554 whole entry): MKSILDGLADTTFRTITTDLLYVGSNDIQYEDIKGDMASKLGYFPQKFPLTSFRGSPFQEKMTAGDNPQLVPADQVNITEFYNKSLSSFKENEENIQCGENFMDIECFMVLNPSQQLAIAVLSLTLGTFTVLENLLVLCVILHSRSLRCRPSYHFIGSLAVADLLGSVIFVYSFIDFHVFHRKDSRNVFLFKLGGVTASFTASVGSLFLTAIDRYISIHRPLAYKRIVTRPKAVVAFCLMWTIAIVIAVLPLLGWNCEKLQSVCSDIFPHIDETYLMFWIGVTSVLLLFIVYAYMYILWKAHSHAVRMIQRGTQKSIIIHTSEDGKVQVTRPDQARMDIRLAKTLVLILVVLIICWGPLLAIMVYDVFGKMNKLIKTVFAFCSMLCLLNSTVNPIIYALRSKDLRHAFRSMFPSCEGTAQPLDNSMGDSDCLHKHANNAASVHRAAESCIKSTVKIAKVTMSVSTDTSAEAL
measuredProperty: Ki (nM)
Only the number, expressed in nM, is required.

Problem: # get_value(readout='Ki', item= `FC(F)(F)c1cccc(-c2c[nH]c(-c3cccc(CN4CCOCC4)c3)n2)c1` )
Solution: 1000

###

We begin with a simple list: items and their reported Emax.
- measuredOn: UniProt P34972
- Sequence (P34972 whole entry): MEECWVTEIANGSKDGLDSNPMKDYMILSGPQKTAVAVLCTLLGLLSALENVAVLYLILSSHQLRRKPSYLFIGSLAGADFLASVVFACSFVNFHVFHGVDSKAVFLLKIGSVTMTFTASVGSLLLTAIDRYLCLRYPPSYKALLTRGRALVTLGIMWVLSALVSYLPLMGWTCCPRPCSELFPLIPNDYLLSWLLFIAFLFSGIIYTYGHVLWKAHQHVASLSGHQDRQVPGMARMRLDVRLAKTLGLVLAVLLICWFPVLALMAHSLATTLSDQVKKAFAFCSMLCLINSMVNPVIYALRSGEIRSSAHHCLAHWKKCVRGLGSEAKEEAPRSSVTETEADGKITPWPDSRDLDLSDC
- assayDetails: Agonist activity at human cloned CB2 receptor expressed in CHO cells assessed as inhibition of forskolin-induced cAMP accumulation relative to control
- Assay type: functional, cell-based
Return type: number; implicit unit %.

Look over these answered cases.
# compound, Emax / %
measured = [
    ("CC1CN(Cc2cccc(-c3nc(-c4cccc(Cl)c4)c[nH]3)c2)CCO1 (stereo not drawn)", 102),
    ("FC(F)(F)c1cccc(-c2cn(CC3CC3)c(-c3cccc(CN4CCOCC4)c3)n2)c1", 68),
    ("Clc1cccc(-c2c[nH]c(-c3cccc(CN4CCCCC4)c3)n2)c1", 114),
    ("FC1CCN(Cc2cccc(-c3nc(-c4cccc(Cl)c4Cl)c[nH]3)c2)CC1", 119),
    ("FC1(F)CCN(Cc2cccc(-c3nc(-c4cccc(C(F)(F)F)c4)c[nH]3)c2)CC1", 100),
]

Problem: Using the record for `COc1ccc(F)c(-c2c[nH]c(-c3cccc(CN4CCCCC4)c3)n2)c1` , report its Emax.
Solution: 108

Problem: Same question for `O=C(c1ccccc1)n1cc(-c2cccc(C(F)(F)F)c2)nc1-c1cccc(CN2CCOCC2)c1` please.
Solution: 101

Problem: Moving on to `FC(F)(F)c1cccc(-c2c[nH]c(-c3cccc(CN4CCSCC4)c3)n2)c1`
Solution: 100

Problem: Let us now turn to `FC(F)(F)c1cccc(-c2c[nH]c(-c3cccc(CN4CCCCC4)c3)n2)c1`
Solution: 104

Problem: Entry to check: `FC1CCN(Cc2cccc(-c3nc(-c4ccc(Cl)cc4Cl)c[nH]3)c2)CC1`
Solution: 107

Problem: Further, for `COc1ccc(F)c(-c2c[nH]c(-c3cccc(CN4CCOCC4)c3)n2)c1` ?
Solution: 109

###

- measuredOn: Cannabinoid receptor 1 (Homo sapiens, UniProt P21554)
- assayDetails: Agonist activity at human cloned CB1 receptor expressed in CHO cells assessed as inhibition of forskolin-induced cAMP accumulation
So basically: is EC50 under 2 µM? Then 1.0. Not under? Then 0.0.

# smilesRepresentation, answerLabel
rows = [
    ("Clc1ccc(-c2c[nH]c(-c3cccc(CN4CCCCC4)c3)n2)c(Cl)c1", 1.0),
    ("COc1ccc(F)c(-c2c[nH]c(-c3cccc(CN4CCOCC4)c3)n2)c1", 1.0),
    ("CC1CCN(Cc2cccc(-c3nc(-c4cccc(C(F)(F)F)c4)c[nH]3)c2)CC1", 0.0),
    ("CCOc1ccc(F)c(-c2c[nH]c(-c3cccc(CN4CCCCC4)c3)n2)c1", 0.0),
    ("FC1CCN(Cc2cccc(-c3nc(-c4ccc(Cl)cc4Cl)c[nH]3)c2)CC1", 0.0),
]

Problem: Lab note: EC50 threshold 2 µM. Does this compound come in strictly under it? `FC1CCN(Cc2cccc(-c3nc(-c4cccc(C(F)(F)F)c4)c[nH]3)c2)CC1`
Solution: 0.0

Problem: Follow-up entry: `FC1(F)CCN(Cc2cccc(-c3nc(-c4cccc(C(F)(F)F)c4)c[nH]3)c2)CC1`
Solution: 0.0
